- protocol.description: Solubility of chelate compounds
property.measured: solubility

Here is how some molecules turned out for solubility.
CCCCN(CCCC)Cc1c(C)c(CN(CCCC)CCCC)c(C)c(CN(CCCC)CCCC)c1C | < 10 mM
CCN(CC)Cc1c(C)c(CN(CC)CC)c(C)c(CN(CC)CC)c1C | < 10 mM

Pending molecule:
Reported solubility for `CCCCN(CCCC)Cc1cc(CN(CCCC)CCCC)cc(CN(CCCC)CCCC)c1` : what is it?
< 10 mM

====

- Test system: Caco-2 cells
- protocol.description: Adsorption of chelate compounds to cells (HPLC and mass spectrometry)
- Type: cell-based, human
- condition.label: 50 µM chelate compound, 0, 30 and 90 minutes at 37 °C; % adsorbed relative to time zero
property.measured: Adsorption Caco-2

Here is how some compounds turned out for Adsorption Caco-2.
CCOP(=O)(O)Cc1cccc(CP(=O)(O)OCC)n1 [Compound 5] | 0 (0 = 0-10%)
Cc1c(CN(C)C)c(C)c(CN(C)C)c(C)c1CN(C)C [Compound 16] | 0 (0 = 0-10%)
CCOP(=O)(O)Cc1ccc2cc(C)ccc2n1 [Compound 2] | ++ (++ = 21-40%)
CN(C)Cc1cc(CN(C)C)cc(CN(C)C)c1 [Compound 13] | 0 (0 = 0-10%)

Field: Adsorption Caco-2 (Caco-2 cells). Entry: COP(=O)(O)Cc1cccc(CP(=O)(O)OC)n1 [Compound 4]
++ (++ = 21-40%)

Likewise for COP(=O)(O)CNCCCN(CCCNCP(=O)(O)OC)CP(=O)(O)OC [Compound 19] ?
++ (++ = 21-40%)

Likewise for CCOP(=O)(O)CNCCCN(CCCNCP(=O)(O)OCC)CP(=O)(O)OCC [Compound 20] ?
++ (++ = 21-40%)

====

- protocol.description: Solubility of chelate compounds
- condition.label: <5% methanol, ethanol, or DMSO
property.measured: solubility

Reported solubility for `CCCCOP(=O)(O)Cc1cc(CP(=O)(O)OCCCC)cc(CP(=O)(O)OCCCC)c1` : what is it?
> 10 mM

Likewise for `Cc1c(CN(C)C)c(C)c(CN(C)C)c(C)c1CN(C)C` ?
> 10 mM

Likewise for `CCOP(=O)(O)Cc1c(C)c(CP(=O)(O)OCC)c(C)c(CP(=O)(O)OCC)c1C` ?
> 10 mM

Likewise for `CCOP(=O)(O)Cc1cc(CP(=O)(O)OCC)cc(CP(=O)(O)OCC)c1` ?
> 10 mM

Likewise for `CN(C)Cc1cc(CN(C)C)cc(CN(C)C)c1` ?
> 10 mM

====

- System: HEK293 cells
- protocol.description: Adsorption of chelate compounds to cells (HPLC and mass spectrometry)
- Format: cell-based, human
- condition.label: 50 µM chelate compound, 0, 30 and 90 minutes at 37 °C; % adsorbed relative to time zero
property.measured: Adsorption HEK293

Reported Adsorption HEK293 for CCOP(=O)(O)Cc1cc(CP(=O)(O)OCC)cc(CP(=O)(O)OCC)c1 [Compound 8] : what is it?
0 (0 = 0-10%)

Likewise for CCCCOP(=O)(O)Cc1c(C)c(CP(=O)(O)OCCCC)c(C)c(CP(=O)(O)OCCCC)c1C [Compound 12] ?
0 (0 = 0-10%)

Likewise for COP(=O)(O)Cc1c(C)c(CP(=O)(O)OC)c(C)c(CP(=O)(O)OC)c1C [Compound 10] ?
0 (0 = 0-10%)
